Molecular target: human apelin receptor (APJ, AGTRL-one, APLNR) (Homo sapiens)
Sequence (P35414 whole entry): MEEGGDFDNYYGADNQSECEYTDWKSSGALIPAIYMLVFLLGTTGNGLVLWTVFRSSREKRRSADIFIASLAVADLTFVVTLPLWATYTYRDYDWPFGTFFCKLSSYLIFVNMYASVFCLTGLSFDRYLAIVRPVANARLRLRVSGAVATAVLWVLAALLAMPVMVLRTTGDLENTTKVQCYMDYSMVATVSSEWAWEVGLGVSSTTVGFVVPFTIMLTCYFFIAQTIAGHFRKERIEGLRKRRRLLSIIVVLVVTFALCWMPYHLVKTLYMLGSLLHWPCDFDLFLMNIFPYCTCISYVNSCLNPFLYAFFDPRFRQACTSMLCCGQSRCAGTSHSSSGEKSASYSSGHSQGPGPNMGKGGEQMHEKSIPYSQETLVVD
Assay: cell-based cAMP TR-FRET assay of apelin receptor activation
Conditions: CHO cells expressing human APJ, forskolin-stimulated cAMP, 0.5 h incubation, 50% of control (apelin-13, 1 nM) response; read-out: Potency Category (EC50)
Procedure: The assays disclosed herein were performed using cell lines from DiscoveX, Inc. Biological activity was determined to the cell—based assay. This assay detects activation of the receptor by reporting on intracellular cyclic adenosine monophosphate (cAMP) level. […] At the end of the incubation, cells were lysed to stop APJ signaling and cAMP was quantified using a commercially available competitive immunoassay kit that applies homogenous time—resolved florescence energy transfer (TR—FRET). […]
MEASUREMENT LABEL: EC50

Some solved cases for reference:
| COMPOUND | EC50 |
| --- | --- |
| COCCNC(=O)c1ccc(C(Oc2ccc(C#N)cc2)C(=O)Nc2nc3cc(OC)c(OC)cc3s2)cc1 (stereo not drawn) | 50 to 100 nM |
| CCS(=O)(=O)c1ccc(C(Oc2ccc(OC(F)(F)F)cc2)C(=O)Nc2nc3cc(OC)c(OC)cc3s2)cc1 (stereo not drawn) | 200 to 500 nM |
| CCS(=O)(=O)c1ccc(CC(=O)Nc2nc3cc4c(cc3s2)OCO4)cc1 | > 500 nM |
| COc1cc2nc(NC(=O)C(Oc3ccc(C#N)cc3)c3cccc(S(=O)(=O)Cc4ccccc4)c3)sc2cc1OC (stereo not drawn) | < 50 nM |
| COc1cc2nc(NC(=O)C(Oc3ccc(C#N)cc3)c3cccc(S(=O)(=O)c4ccc(F)cc4)c3)sc2cc1OC (stereo not drawn) | 200 to 500 nM |
| CCS(=O)(=O)c1ccc(CC(=O)Nc2nc3c(OC)ccc(OC)c3s2)cc1 | > 500 nM |
| CCS(=O)(=O)c1ccc(C(Oc2ccccc2C)C(=O)Nc2nc3cc(OC)c(OC)cc3s2)cc1 (stereo not drawn) | > 500 nM |
| COc1cc2nc(NC(=O)Cc3ccc(S(=O)(=O)C(C)C)cc3)sc2cc1OC | > 500 nM |

[Q] Give the reported value of EC50 for this record: COCCOc1ccc(C(Oc2ccc(C#N)cc2)C(=O)Nc2nc3cc(OC)c(OC)cc3s2)cc1 (stereo not drawn)
[A] < 50 nM

[Q] Give the reported value of EC50 for this record: COc1cc2nc(NC(=O)C(Oc3ccc(OCCN4CCCCC4)cc3)c3ccc(C#N)cc3)sc2cc1OC (stereo not drawn)
[A] 50 to 100 nM

[Q] Give the reported value of EC50 for this record: COc1cc2nc(NC(=O)C(Oc3ccc(C#N)cc3)c3ccc(C(=O)NCCN4CCOCC4)cc3)sc2cc1OC (stereo not drawn)
[A] 100 to 200 nM

[Q] Give the reported value of EC50 for this record: `CCS(=O)(=O)c1ccc(CC(=O)Nc2nc3c4c(ccc3s2)OCO4)cc1`
[A] > 500 nM

[Q] Give the reported value of EC50 for this record: `COc1cc2nc(NC(=O)Cc3cccc(S(=O)(=O)C4CCCC4)c3)sc2cc1OC`
[A] > 500 nM

[Q] Give the reported value of EC50 for this record: COc1cc2nc(NC(=O)C(Oc3ccc(C#N)cc3)c3ccc(S(=O)(=O)NCCN(C)C)cc3)sc2cc1OC (stereo not drawn)
[A] < 50 nM

[Q] Give the reported value of EC50 for this record: COc1cc2nc(NC(=O)C(Oc3ccc(C(=O)N4CCNCC4)cc3)c3ccc(C#N)cc3)sc2cc1OC (stereo not drawn)
[A] < 50 nM

[Q] Give the reported value of EC50 for this record: CCS(=O)(=O)c1ccc(C(Oc2ccc(C#N)cc2)C(=O)Nc2nc3ccc(OC)c(OC(C)C)c3s2)cc1 (stereo not drawn)
[A] < 50 nM

[Q] Give the reported value of EC50 for this record: CCS(=O)(=O)c1ccc(C(Oc2ccc(I)cc2)C(=O)Nc2nc3cc(OC)c(OC)cc3s2)cc1 (stereo not drawn)
[A] 200 to 500 nM

[Q] Give the reported value of EC50 for this record: CCS(=O)(=O)c1ccc(C(Oc2ccc(C(=O)N(C)C)cc2)C(=O)Nc2nc3cc(OC)c(OC)cc3s2)cc1 (stereo not drawn)
[A] < 50 nM

[Q] Give the reported value of EC50 for this record: COc1cc2nc(NC(=O)C(Oc3ccc(C#N)cc3)c3ccc(C(=O)NCCN4CCOCC4)cc3)oc2cc1OC (stereo not drawn)
[A] 200 to 500 nM

[Q] Give the reported value of EC50 for this record: CCS(=O)(=O)c1ccc(C(Oc2ccc(C#N)cc2)C(=O)Nc2nc3ccc(OC)c(OC)c3s2)cc1 (stereo not drawn)
[A] 50 to 100 nM

[Q] Give the reported value of EC50 for this record: COc1cc2nc(NC(=O)C(Oc3ccc(C(=O)O)cc3)c3ccc(C#N)cc3)sc2cc1OC (stereo not drawn)
[A] > 500 nM

[Q] Give the reported value of EC50 for this record: COc1cc2nc(NC(=O)C(Oc3ccc(C(=O)NCCN4CCOCC4)cc3)c3ccc(C#N)cc3)sc2cc1OC (stereo not drawn)
[A] 200 to 500 nM

[Q] Give the reported value of EC50 for this record: COc1cc2nc(NC(=O)C(Oc3ccc(OCCN4CCOCC4)cc3)c3ccc(C#N)cc3)sc2cc1OC (stereo not drawn)
[A] 50 to 100 nM

[Q] Give the reported value of EC50 for this record: CCS(=O)(=O)c1ccc(C(Oc2ccc(C#N)cc2)C(=O)Nc2nc3cc4c(cc3s2)OCO4)cc1 (stereo not drawn)
[A] > 500 nM

Source listed as patent US12071414B2.
